# ASSAY NAME: Inhibition of HIV reverse transcriptase
# Design: species or system Human immunodeficiency virus
MEASUREMENT KIND: IC50 (nM)

P: CCc1cc(CCN2C(=O)c3ccccc3C2=O)c(O)nc1C
Q: CCc1cc(NCN2C(=O)c3ccccc3C2=O)c(O)nc1C
Ask: Could you determine which record has the numerically smaller IC50? Candidates: P and Q In your reply, give the label of the chosen option.
Reply: Q
(Q: 0.058 nM, P: 6.2 nM)

* * *

# EXPERIMENTAL SYSTEM: Human immunodeficiency virus type 1 reverse transcriptase (Human immunodeficiency virus 1, UniProt Q72547)
MEASUREMENT KIND: pIC50
# pIC50: negative log10 of molar concentration; output just the value

Ask: Please look up its pIC50: CCc1cc(NCc2cc3ccccc3o2)c(O)nc1C
Reply: 9.48
